test: Solubility in iv formulation was determined after incubation at 25 degree C
parameter.measured: solubility (µg/mL)
A number alone suffices; assume µg/mL.

Asked: Item under review: CO[C@H]1O[C@@H]2O[C@@]3(C)CC[C@H]4[C@H](C)CC[C@@H]([C@H]1C)[C@@]24OO3 . Reported solubility?
Given back: 4700

Data origin: ChEMBL document CHEMBL1149097
